clearance overview
Test: Clearance in Sprague-Dawley rat at 2 mg/kg, iv
Format: ADME, organism-based
Design: dose 2 mg/kg, route intravenous
Conditions: in vivo
metric.name: clearance

{"record.smiles": "Cc1c(F)cc(C(=O)NC2CC2)cc1-c1cc2nnc(-c3c(F)cccc3Cl)n2n(C)c1=O", "assay.result": "8.77 mL/min/kg"}
{"record.smiles": "CCn1c(=O)c(-c2cc(C(=O)NC3CC3)ccc2C)cc2nnc(-c3c(F)cccc3Cl)n21", "assay.result": "13.1 mL/min/kg"}
{"record.smiles": "CCn1c(=O)c(-c2cc(C(=O)NC3CC3)cc(F)c2C)cc2nnc(-c3c(F)cccc3Cl)n21", "assay.result": "11.4 mL/min/kg"}
